Data origin: the supplement of paper PMC12490022

System: ozone
Test: apparent second-order rate constant for reaction with ozone (kapp,O3) (M-1 s-1); higher = faster oxidation by ozone
Details: pH 7; temperature: 22 C; OH radical scavenger: tBuOH 80 mM; phosphate 4 mM
Assign 1.0 to entries whose apparent second-order rate constant meets or exceeds 800000; assign 0.0 to the rest.

Answer whether apparent second-order rate constant of CC(=O)Nc1ccc(OS(=O)(=O)O)cc1 [Paracetamol-sulfate] is greater than or equal to 800000. 0.0

Answer whether apparent second-order rate constant of O=C(O)Cc1ccccc1Nc1c(Cl)cccc1Cl [Diclofenac] is greater than or equal to 800000. 1.0

Answer whether apparent second-order rate constant of O=C1Nc2c(CO)ccnc2N(C2CC2)c2ncccc21 [12-Hydroxynevirapine] is greater than or equal to 800000. 0.0

Answer whether apparent second-order rate constant of Oc1ccc(C(c2ccc(O)cc2)c2ccccn2)cc1 [Desacetylbisacodyl] is greater than or equal to 800000. 1.0

Answer whether apparent second-order rate constant of Oc1cnc2c(c1)CCc1cc(Cl)ccc1C2=C1CCNCC1 [3-Hydroxydesloratadine] is greater than or equal to 800000. 1.0

Answer whether apparent second-order rate constant of COc1ccc(C2Sc3ccccc3N(CCN(C)C)C(=O)C2OC(C)=O)cc1 (stereo unspecified) [Diltiazem] is greater than or equal to 800000. 0.0

----------
System: ozone
Experiment: apparent second-order rate constant for reaction with ozone (kapp,O3) (M-1 s-1); higher = faster oxidation by ozone
Conditions: pH 7; temperature: 22 C; OH radical scavenger: tBuOH 80 mM; phosphate 4 mM
quantity name: apparent second-order rate constant

Quick one: apparent second-order rate constant of CCOC(=O)c1c(COCCN)nc(C)c(C(=O)OC)c1-c1ccccc1Cl [Dehydroamlodipine] ? 55

Quick one: apparent second-order rate constant of CCC(c1cccc(O)c1)C(C)CN(C)C (centres undefined) ? 1.83e+06

Quick one: apparent second-order rate constant of CC1(C)SC2C(NC(=O)C(N)c3ccc(O)cc3)C(=O)N2C1C(=O)O (centres undefined) ? 2.2e+06

Quick one: apparent second-order rate constant of CC(NC(C)(C)C)C(O)c1cccc(Cl)c1 (centres undefined) [Dihydrobupropion] ? 162

Quick one: apparent second-order rate constant of CNCCCC(C#N)(c1ccc(OC)c(OC)c1)C(C)C (centres undefined) ? 2300

Quick one: apparent second-order rate constant of CN(C=O)CCC(Oc1ccc(C(F)(F)F)cc1)c1ccccc1 (centres undefined) [Fluoxetine formamide] ? 2.7

Quick one: apparent second-order rate constant of COc1cc(OC)nc(NS(=O)(=O)c2ccc(NC(C)=O)cc2)n1 ? 337000

Quick one: apparent second-order rate constant of CC(C(=O)O)c1ccc2cc(O)ccc2c1 (centres undefined) ? 6.6e+06

Quick one: apparent second-order rate constant of COc1ccc(C2CC(=O)c3c(O)cc(O)cc3O2)cc1O (centres undefined) ? 3.3e+07

Quick one: apparent second-order rate constant of O=c1ncnc2[nH][nH]cc1-2 ? 3.9

Quick one: apparent second-order rate constant of CC(CN(C)C)CN1c2ccccc2CCc2ccccc21 (centres undefined) ? 2e+06

Quick one: apparent second-order rate constant of O=c1nc2[nH][nH]cc-2c(=O)[nH]1 ? 4

Quick one: apparent second-order rate constant of CC(C)c1c(C(=O)Nc2ccc(O)cc2)c(-c2ccccc2)c(-c2ccc(F)cc2)n1CCC(O)CC(O)CC(=O)O (centres undefined) [para-Hydroxyatorvastatin] ? 6.6e+07

Quick one: apparent second-order rate constant of CN1CCCC1c1cccnc1 (centres undefined) ? 332000

Quick one: apparent second-order rate constant of N[C@@H](Cc1cc(I)c(O)c(I)c1)C(=O)O ? 2.87e+06

Quick one: apparent second-order rate constant of CC1(C)SC(CNC(=O)C(N)c2ccc(O)cc2)NC1C(=O)O (centres undefined) ? 9e+06

Quick one: apparent second-order rate constant of CCC(=O)C(CC(C)N(C)C)(c1ccccc1)c1ccccc1 (centres undefined) ? 4250

Quick one: apparent second-order rate constant of Nc1ccc(S(=O)(=O)Nc2ccccn2)cc1 ? 537000

Quick one: apparent second-order rate constant of O=C1CC(c2ccc(O)c(O)c2)Oc2cc(O)cc(O)c21 (centres undefined) ? 1.8e+07

----------
System: ozone
Test: apparent second-order rate constant for reaction with ozone (kapp,O3) (M-1 s-1); higher = faster oxidation by ozone
Conditions: pH 7; temperature: 22 C; OH radical scavenger: tBuOH 80 mM; phosphate 4 mM
Can you tell me apparent second-order rate constant for the items I'm about to list?
// response body must contain only the number

Quick one: apparent second-order rate constant of COc1ccc(C(CN(C)C)C2(O)CCCCC2)cc1 (stereo unspecified) [Venlafaxine] ? 3440

Quick one: apparent second-order rate constant of CNCCC(c1ccccc1)c1ccccn1 (stereo unspecified) [N-Desmethylpheniramine] ? 975

Quick one: apparent second-order rate constant of CNC(=C[N+](=O)[O-])NCCSCc1ccc(C[N+](C)(C)[O-])o1 [Ranitidine-N-oxide] ? 3.45e+06

Quick one: apparent second-order rate constant of Cc1c(CO)cccc1Nc1ccccc1C(=O)O [3-Hydroxymethylmefenamic acid] ? 9.3e+07

Quick one: apparent second-order rate constant of CNC(=C[N+](=O)[O-])NCC[S+]([O-])Cc1ccc(CN(C)C)o1 (stereo unspecified) [Ranitidine-S-oxide] ? 1.75e+06

Quick one: apparent second-order rate constant of Nc1ccn(C2OC(CO)C(O)C2(F)F)c(=O)n1 (stereo unspecified) [Gemcitabine] ? 390

Quick one: apparent second-order rate constant of CCCCc1ncc(C=C(Cc2cccs2)C(=O)O)n1Cc1ccc(C(=O)O)cc1 [Eprosartan] ? 1.57e+06

Quick one: apparent second-order rate constant of CCN1CCCC1CNC(=O)c1cc(S(=O)(=O)CC)c(N)cc1OC (stereo unspecified) [Amisulpride] ? 18000

Quick one: apparent second-order rate constant of COCCCOc1cc(CC(CC(N)C(O)CC(C(=O)NCC(C)(C)C(N)=O)C(C)C)C(C)C)ccc1OC (stereo unspecified) [Aliskiren] ? 22000

Quick one: apparent second-order rate constant of CC(N)C(O)c1ccccc1 (stereo unspecified) [Norephedrine] ? 45.5

Quick one: apparent second-order rate constant of COc1cc(Cc2cnc(N)nc2N)cc(O)c1OC [3-Desmethyltrimethoprim] ? 1.17e+07

Quick one: apparent second-order rate constant of COC(=O)C(c1ccccc1)C1CCCCN1 (stereo unspecified) [Methylphenidate] ? 4300

Quick one: apparent second-order rate constant of CN1CCN2c3ncccc3Cc3ccccc3C2C1 (stereo unspecified) [Mirtazapine] ? 957000

Quick one: apparent second-order rate constant of CCC1OC(=O)C(C)C(OC2CC(C)(OC)C(O)C(C)O2)C(C)C(OC2OC(C)CC(N(C)C)C2O)C(C)(OC)CC(C)C(=O)C(C)C(O)C1(C)O (stereo unspecified) [Clarithromycin] ? 65000

Quick one: apparent second-order rate constant of CN1CCC23c4c5ccc(O)c4OC2C(O)C=CC3C1C5 (stereo unspecified) [Morphine] ? 3.8e+07

Quick one: apparent second-order rate constant of CC(C)NCC(O)COc1ccc(CC(N)=O)cc1 (stereo unspecified) [Atenolol] ? 1580

Quick one: apparent second-order rate constant of CC(C)c1c(C(=O)Nc2ccccc2)c(-c2ccccc2)c(-c2ccc(F)cc2)n1CCC(O)CC(O)CC(=O)O (stereo unspecified) [Atorvastatin] ? 1.5e+08

Quick one: apparent second-order rate constant of CNCCCC1(c2ccc(F)cc2)OCc2cc(C#N)ccc21 (stereo unspecified) [N-Desmethylcitalopram] ? 532

Quick one: apparent second-order rate constant of O=C(O)COCC[N+]1([O-])CCN(C(c2ccccc2)c2ccc(Cl)cc2)CC1 (stereo unspecified) [Cetirizine-N-oxide] ? 5670

Quick one: apparent second-order rate constant of O=C(O)C(c1ccccc1Cl)N1CCc2sccc2C1 (stereo unspecified) [Clopidogrel carboxylic acid] ? 175000

Quick one: apparent second-order rate constant of CCC1(c2ccccc2)C(=O)NCNC1=O [Primidone] ? 2.4

Quick one: apparent second-order rate constant of COCC(=O)Nc1c(I)c(C(=O)NCC(O)CO)c(I)c(C(=O)N(C)CC(O)CO)c1I (stereo unspecified) [Iopromide] ? 2.14

Quick one: apparent second-order rate constant of O=C(c1ccccc1)c1ccc(Cl)cc1 [4-Chlorobenzophenone] ? 0.58

Quick one: apparent second-order rate constant of C[N+](C)(CCOC(c1ccccc1)c1ccccc1)C1OC(C(=O)[O-])C(O)C(O)C1O (stereo unspecified) [Diphenhydramine-N-glucuronide] ? 3.6

Quick one: apparent second-order rate constant of CN1CCC23CCCCC2C1Cc1ccc(O)cc13 (stereo unspecified) [Dextrorphan] ? 1.87e+06

Quick one: apparent second-order rate constant of CC(N)Cc1ccc(O)cc1 (stereo unspecified) [4-Hydroxyamphetamine] ? 2.48e+06

Quick one: apparent second-order rate constant of CC(Cc1ccc(C(C)C(=O)O)cc1)C(=O)O (stereo unspecified) [Carboxyibuprofen] ? 11.8

Quick one: apparent second-order rate constant of CC[N+]1([O-])CCCC1CNC(=O)c1cc(S(=O)(=O)CC)c(N)cc1OC (stereo unspecified) [Amisulpride-N-oxide] ? 1190

Quick one: apparent second-order rate constant of CNCC(c1ccc(OC)cc1)C1(O)CCCCC1 (stereo unspecified) [N-Desmethylvenlafaxine] ? 993

Quick one: apparent second-order rate constant of Nc1ccn([C@@H]2CS[C@H](CO)O2)c(=O)n1 [Lamivudine] ? 61000

Quick one: apparent second-order rate constant of CC(C)c1nc(N(C)S(C)(=O)=O)nc(-c2ccc(F)cc2)c1C=CC(O)CC(O)CC(=O)O (stereo unspecified) [Rosuvastatin] ? 3250

Quick one: apparent second-order rate constant of CN(C)CCOC(c1ccccc1)c1ccccc1 [Diphenhydramine] ? 5500

Quick one: apparent second-order rate constant of CCC(C(N)=O)N1CCCC1=O (stereo unspecified) [Levetiracetam] ? 0.81

Quick one: apparent second-order rate constant of CC(C)NCC(O)COc1cccc2ccccc12 (stereo unspecified) [Propanolol] ? 174000

Quick one: apparent second-order rate constant of CNCC(O)c1cccc(O)c1 (stereo unspecified) [Phenylephrine] ? 158000
